Reference for the values: ChEMBL document CHEMBL1155319

Target: 72 kDa type IV collagenase (Homo sapiens, UniProt P08253)
Sequence (P08253 whole entry): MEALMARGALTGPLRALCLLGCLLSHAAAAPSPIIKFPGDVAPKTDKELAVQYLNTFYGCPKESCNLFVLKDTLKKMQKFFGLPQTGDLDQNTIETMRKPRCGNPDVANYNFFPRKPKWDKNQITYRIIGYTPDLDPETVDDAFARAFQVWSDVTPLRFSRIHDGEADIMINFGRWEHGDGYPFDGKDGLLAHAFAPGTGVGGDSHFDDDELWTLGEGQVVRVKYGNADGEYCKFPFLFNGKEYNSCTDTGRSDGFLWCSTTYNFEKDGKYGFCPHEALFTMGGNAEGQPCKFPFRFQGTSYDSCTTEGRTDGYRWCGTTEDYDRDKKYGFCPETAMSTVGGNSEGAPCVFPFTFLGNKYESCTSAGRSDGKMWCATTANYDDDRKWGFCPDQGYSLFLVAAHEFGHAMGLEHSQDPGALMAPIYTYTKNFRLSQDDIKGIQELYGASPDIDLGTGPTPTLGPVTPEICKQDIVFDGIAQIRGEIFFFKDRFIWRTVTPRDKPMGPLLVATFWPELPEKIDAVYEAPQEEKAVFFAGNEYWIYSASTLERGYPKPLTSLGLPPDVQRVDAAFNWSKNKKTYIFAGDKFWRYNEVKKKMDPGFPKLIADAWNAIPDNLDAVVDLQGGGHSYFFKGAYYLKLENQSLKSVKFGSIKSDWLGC
observation-type: IC50 (nM)

Query block: Item O=C(NO)[C@H]1CC(CC(=O)N2CCCC2)CN[C@@H]1C(=O)N1CC[C@H](c2ccccc2)C1 (some centres undefined) has what recorded IC50?
Result block: 365

1 = CN1C[C@@H](OC(=O)N2CCCC2)C[C@H](C(=O)NO)[C@H]1C(=O)N1CCN(c2ccccc2)CC1
2 = O=C(NO)[C@H]1C[C@H](OC(=O)N2CCCC2)CN[C@@H]1C(=O)N1CCN(c2ccccc2)CC1
3 = CN1C[C@@H](OC(=O)N2CCCCCCC2)C[C@H](C(=O)NO)[C@H]1C(=O)N1CCN(c2ccccc2)CC1
Query block: Sort ascending by IC50. Sort the labels as requested; that list is your answer.
Result block: 2, 1, 3
(2: 235 nM, 1: 471 nM, 3: 1470 nM)
